test: log p; assay type: physicochemical
Measure Name: log p
Just the number.

# input Answer with the recorded log p of Fc1c(F)c(F)c(-c2c(Cl)nc3ncnn3c2N2CCCC2)c(F)c1F only.
# output 3.11

# input Answer with the recorded log p of CC(C)(Nc1c(-c2c(F)c(F)c(F)c(F)c2F)c(Cl)nc2ncnn12)C(F)(F)F only.
# output 3.75

# input Answer with the recorded log p of Cc1cc(C)c(-c2c(Cl)nc3ncnn3c2NC(C)C(F)(F)F)c(C)c1 (centres unmarked) only.
# output 3.55

# input Answer with the recorded log p of Fc1ccc(-c2c(Cl)nc3ncnn3c2N2CCCCO2)c(Cl)c1 only.
# output 3.11

# input Answer with the recorded log p of CC(Nc1c(-c2ccc(F)cc2Cl)c(Cl)nc2ncnn12)C(F)(F)F (centres unmarked) only.
# output 3.04

----------
I'd appreciate it if you could supply log p values for the items below.
test: log p; format: physicochemical
Just the number.

# input Answer with the recorded log p of C[C@@H](Nc1c(-c2ccc(F)cc2Cl)c(Cl)nc2ncnn12)C(F)(F)F [Example 61] only.
# output 3

# input Answer with the recorded log p of CC1CCCN1c1c(-c2ccc(F)cc2F)c(Cl)nc2ncnn12 (stereo not drawn) [Example 184] only.
# output 2.99

# input Answer with the recorded log p of CC1CCN(c2c(-c3c(F)cccc3Cl)c(C#N)nc3ncnn23)CC1 [Example 280] only.
# output 3.37

# input Answer with the recorded log p of CC(C)Nc1c(-c2ccccc2Cl)c(Cl)nc2ncnn12 [Example 131] only.
# output 2.65

# input Answer with the recorded log p of C[C@@H](Nc1c(-c2c(F)cc(F)cc2F)c(Cl)nc2ncnn12)C(F)(F)F [Example 60] only.
# output 2.84

# input Answer with the recorded log p of Fc1cc(F)c(-c2c(Cl)nc3ncnn3c2N2CCCCO2)c(F)c1 [Example 201] only.
# output 2.92

# input Answer with the recorded log p of CCC(C)Nc1c(-c2ccc(Cl)cc2Cl)c(Cl)nc2ncnn12 (stereo not drawn) [Example 8] only.
# output 3.54

# input Answer with the recorded log p of CC1CNN(c2c(-c3ccc(F)cc3Cl)c(Cl)nc3ncnn23)CC1C (stereo not drawn) [Example 266] only.
# output 3.43

# input Answer with the recorded log p of CNc1c(-c2c(F)c(F)c(F)c(F)c2F)c(Cl)nc2ncnn12 [Example 84] only.
# output 2.41

# input Answer with the recorded log p of CNc1c(-c2ccccc2F)c(Cl)nc2ncnn12 [Example 86] only.
# output 1.86

# input Answer with the recorded log p of C[C@H](Nc1c(-c2c(Cl)c(F)cc(C(F)(F)F)c2Cl)c(Cl)nc2ncnn12)C(F)(F)F [Example 44] only.
# output 3.74

# input Answer with the recorded log p of CC(C)Nc1c(-c2ccccc2)c(Cl)nc2ncnn12 [Example 147] only.
# output 2.45

# input Answer with the recorded log p of Fc1ccc(-c2c(Cl)nc3ncnn3c2N2CCOCC2)c(F)c1 [Example 195] only.
# output 2.19

# input Answer with the recorded log p of Fc1ccc(-c2c(Cl)nc3ncnn3c2N2CCC(C(F)(F)F)CC2)c(F)c1 [Example 193] only.
# output 3.34

# input Answer with the recorded log p of Fc1c(F)c(F)c(-c2c(Cl)nc3ncnn3c2N2CCCCC2C(F)(F)F)c(F)c1F (stereo not drawn) [Example 208] only.
# output 4.09

# input Answer with the recorded log p of CCC(C)Nc1c(-c2ccc(F)cc2F)c(Cl)nc2ncnn12 (stereo not drawn) [Example 6] only.
# output 2.85

# input Answer with the recorded log p of CC(C)Nc1c(-c2ccc(F)cc2F)c(Cl)nc2ncnn12 [Example 145] only.
# output 2.56

# input Answer with the recorded log p of CN1CCN(c2c(-c3c(F)c(F)c(F)c(F)c3F)c(Cl)nc3ncnn23)CC1 [Example 197] only.
# output 1.43

# input Answer with the recorded log p of C[C@H](Nc1c(-c2ccccc2Cl)c(Cl)nc2ncnn12)C(F)(F)F [Example 58] only.
# output 2.87

# input Answer with the recorded log p of CC(C)C(C)Nc1c(-c2ccccc2)c(Cl)nc2ncnn12 (stereo not drawn) [Example 74] only.
# output 3.14

# input Answer with the recorded log p of C=C(C)CN(C)c1c(-c2c(F)cc(C(F)(F)F)cc2Cl)c(Cl)nc2ncnn12 [Example 96] only.
# output 4.05

# input Answer with the recorded log p of C=C(C)CN(CC)c1c(-c2cccc(C(F)(F)F)c2Cl)c(Cl)nc2ncnn12 [Example 102] only.
# output 4.12

# input Answer with the recorded log p of CC1CNN(c2c(-c3c(F)cc(F)cc3F)c(Cl)nc3ncnn23)CC1C (stereo not drawn) [Example 270] only.
# output 3.35

# input Answer with the recorded log p of Fc1cccc(Cl)c1-c1c(Cl)nc2ncnn2c1N1CCCN1 [Example 260] only.
# output 2.29

# input Answer with the recorded log p of C[C@H](Nc1c(-c2ccc(C(F)(F)F)cc2F)c(Cl)nc2ncnn12)C(F)(F)F [Example 45] only.
# output 3.33

# input Answer with the recorded log p of CC1CCN(c2c(-c3ccccc3Cl)c(Cl)nc3ncnn23)CC1 [Example 256] only.
# output 3.71

# input Answer with the recorded log p of C=C(C)CN(CC)c1c(-c2ccccc2Cl)c(Cl)nc2ncnn12 [Example 105] only.
# output 3.69

# input Answer with the recorded log p of Fc1cc(C(F)(F)F)cc(Cl)c1-c1c(Cl)nc2ncnn2c1N1CCC(C(F)(F)F)CC1 [Example 178] only.
# output 4.18

# input Answer with the recorded log p of Fc1ccc(-c2c(Cl)nc3ncnn3c2N2CCCC2)c(F)c1 [Example 185] only.
# output 2.62

# input Answer with the recorded log p of CC1CN(c2c(-c3c(F)c(F)c(F)c(F)c3F)c(Cl)nc3ncnn23)CC(C)O1 (stereo not drawn) [Example 206] only.
# output 3.33

# input Answer with the recorded log p of CC1CCCCN1c1c(-c2ccc(F)cc2F)c(Cl)nc2ncnn12 (stereo not drawn) [Example 188] only.
# output 3.44

# input Answer with the recorded log p of Clc1nc2ncnn2c(N2CCOCC2)c1-c1ccccc1 [Example 252] only.
# output 2.03

# input Answer with the recorded log p of Fc1cc(C(F)(F)F)cc(Cl)c1-c1c(Cl)nc2ncnn2c1N1CCOCC1 [Example 175] only.
# output 3.07

# input Answer with the recorded log p of CC1CC(C)CN(c2c(-c3c(F)cc(C(F)(F)F)cc3Cl)c(Cl)nc3ncnn23)C1 (stereo not drawn) [Example 180] only.
# output 4.79

# input Answer with the recorded log p of CC1CCN(c2c(-c3c(F)cc(C(F)(F)F)cc3Cl)c(Cl)nc3ncnn23)CC1 [Example 182] only.
# output 4.37

# input Answer with the recorded log p of Clc1nc2ncnn2c(N2CCCCC2)c1-c1ccccc1 [Example 251] only.
# output 3.05
